target: Phosphodiesterase 3 (Homo sapiens, UniProt Q14432+Q13370); test: Inhibitory effect in cGMP-inhibited Phosphodiesterase 3 (PDE 3) isolated from guinea pig ventricular tissue.; assay type: protein assay, Cavia porcellus; settings: target entry is the homologue from another species
Would you kindly list IC50 for each of these molecules?
Express it in µM; write the number only.

Return the recorded IC50 value; entry: `CC(C)c1nc(SCc2ccc(-c3ccccc3-c3nn[nH]n3)cc2)c2ccccc2n1` 2.4

Return the recorded IC50 value; entry: `CCc1nc(OCc2ccc(-c3ccccc3-c3nn[nH]n3)cc2)c2ccccc2n1` 5.8

Return the recorded IC50 value; entry: `CCCc1nc(SCc2ccc(-c3ccccc3-c3nn[nH]n3)cc2)c2cc(C)ccc2n1` 2.4

Return the recorded IC50 value; entry: `CCCCc1nc(NCc2ccc(-c3ccccc3-c3nn[nH]n3)cc2)c2ccccc2n1` 16

Return the recorded IC50 value; entry: `CCCc1nc(SCc2ccc(-c3ccccc3-c3nn[nH]n3)cc2)c2ccccc2n1` 6.8

Return the recorded IC50 value; entry: `CCCCc1nc(OCc2ccc(-c3ccccc3-c3nn[nH]n3)cc2)c2ccccc2n1` 5.4
